system: MALME-3M melanoma; experiment: NCI tumour cell line growth inhibition, 48 h
Assay Endpoint: TGI

# Molecule, Assay Endpoint, Measured
rows = [
    ("CC1(C)CCC[C@@]2(C)C1C(=O)[C@@H]1O[C@]1(C)[C@@H]2CO (stereo not given in full)", "TGI", "> 100 µM"),
    ("CCOC(=O)N[C@H]1CCc2c(Br)c(OC)c(OC)c(OC)c2-c2ccc(SC)c(=O)cc21", "TGI", "28.4 µM"),
    ("COc1cc2ccc1OCc1cccc(n1)COc1ccc(cc1OC)C=Nc1ccc(cc1)-c1ccc(cc1)N=C2", "TGI", "> 100 µM"),
    ("CC(=O)[C-](C(C)=O)c1ccccc1.CC(=O)[C-](C(C)=O)c1ccccc1.CC[O-].CC[O-].[Ti+4]", "TGI", "> 100 µM"),
    ("COC(=O)CCc1cccnc1/C=N/O", "TGI", "> 100 µM"),
]

Value source: PubChem BioAssay (NCI)
